Tested on: OVCAR-4 ovarian
Test: NCI-60 one-dose screen, 48 h (100 = growth as untreated, 0 = no growth, -100 = all killed)
Details: 10 µM unless noted
The panel holds about 83,000 compounds, 20% with a hit somewhere; the sample as a whole holds those more often.
I'd be grateful if you could share measured growth for these entries.
One number for each entry, in %.

{"Compound": "CN(C)c1ccc(C(=C2C=CC(=[N+](C)C)C=C2)c2ccc(N(C)C)cc2)cc1 (tested in a mixture with another compound)", "System Name": "OVCAR-4 ovarian", "Measurement Units": "%", "growth": -40.1}
{"Compound": "CN(C)CCOc1ccc2c(c1)C(=O)/C(=C\\c1ncc([N+](=O)[O-])n1C)C2", "System Name": "OVCAR-4 ovarian", "Measurement Units": "%", "growth": -49.1}
{"Compound": "O=C(/C=C\\c1cc(Br)ccc1O)/C=C/c1cc(Br)ccc1O", "System Name": "OVCAR-4 ovarian", "Measurement Units": "%", "growth": 15.2}
{"Compound": "CCC(CC)COC(=O)c1ccc(O)c(O)c1", "System Name": "OVCAR-4 ovarian", "Measurement Units": "%", "growth": 77.2}

INPUT: For CCCCCCCCCCCCCCCCN(CC)CC , write its growth.
OUTPUT: -6.38
